System: A549 NSCLC
Test: NCI tumour cell line growth inhibition, 48 h
Measurement Name: GI50

Examples with their reported GI50 follow.
| Compound | GI50 |
| --- | --- |
| COC(=O)/C(=C\c1c(-c2ccccc2)[nH]c2ccccc12)S(C)(=O)=O | 5.26 µM |
| CC(=O)/C(=C\c1c(-c2ccccc2)[nH]c2ccccc12)S(=O)(=O)c1ccccc1 | 6.73 µM |
| O=C(c1ccccc1)c1nn(-c2ccccc2)c2nc3nc(-c4ccccc4)cc(=O)n3nc12 | 26.5 µM |
| COc1ccc(C#CC2=C(c3cc(OC)c(OC)c(OC)c3)C(=O)OC2)cc1 | 14.3 µM |
| C[C@]12CC[C@@H]3c4ccc(O)cc4CC[C@H]3[C@@H]1CC[C@@H]2NS(=O)(=O)c1ccc2ccccc2c1 | 3.24 µM |

Alright, here's another compound for you.
What value of measured GI50 is listed for CCCCCSC1C2C(=O)C(Br)=CC13CCNc1c(O)c4c5c(c13)=[N+]2CCC=5C=N4 (stereo unspecified) ?
2.88 µM

---

System: RXF 393 renal
Assay: NCI tumour cell line growth inhibition, 48 h; in the data active = GI50 below about 0.43 µM; inactive = the rest
Use one of these outcomes when replying: active, inactive

Take a look at these entries with their results.
| Compound | Target | Class |
| --- | --- | --- |
| O=C(COc1ccc(-c2nc3cc(Cl)c(Cl)cc3[nH]2)cc1)N=Nc1c(O)[nH]c2ccccc12 | RXF 393 renal | inactive |
| CCCCCSC1C2C(=O)C(Br)=CC13CCNc1c(O)c4c5c(c13)=[N+]2CCC=5C=N4 (stereo unspecified) | RXF 393 renal | inactive |

What classification did Clc1ccc(N2CCC(N3CCCC3)CC2)cc1-c1nc2ccccc2[nH]1 end up with in this test?
inactive

Recorded test call requested for CC/C=C\C[C@H](O)C/C=C1/C(=O)C=C[C@@H]1C/C=C\CCCC(=O)NC
inactive

Hi team, can someone confirm the assay call for Cc1ccc(C(=O)N=Nc2c(O)[nH]c3ccc(Cl)cc23)cc1 ?
inactive

Entry Cc1cc(S(N)(=O)=O)c(S/C(=N\Nc2ccc([N+](=O)[O-])cc2)c2ccc3ccccc3c2)cc1Cl : call = ?
inactive

What classification did CCN1C(=O)N(CC)C2C1NN=c1s/c(=C\c3cccc([N+](=O)[O-])c3)c(=O)n12 (stereo unspecified) end up with in this test?
active

GET /call?item= Oc1c(CNCCNCc2cc(Cl)cc(Cc3ccccc3)c2O)cc(Cl)cc1Cc1ccccc1 returns the recorded outcome of this test.
active

Dear colleague, could you share the recorded outcome for CC1(C)N=C(N)N=C(N)N1c1ccc(Cl)c(Cl)c1 when you have a moment?
inactive

Look up the recorded call for COc1cc(NC(C)CCCN)c2ncccc2c1Sc1ccc(Cl)cc1 (stereo unspecified) in this test.
inactive

Could you kindly confirm the outcome this assay logged for CNC(=O)c1cc2c(Oc3ccc(NC(=S)NC(=O)Cc4ccccc4)cc3F)ccnc2cc1OC ?
inactive

---

Tested on: MCF7 breast
Assay: NCI tumour cell line growth inhibition, 48 h
Answer each item with its documented TGI.

| Compound | Result |
| --- | --- |
| O=c1cc(O)c2c(O)cc(O)cc2o1 | > 100 µM |

Give TGI for each listed item.
1. CC(=O)c1ccccc1NS(=O)(=O)c1ccc2nc(C)n(NS(=O)(=O)c3ccccc3C(C)=O)c(=O)c2c1
2. CC(=O)OC1[C@H](n2ccnc2)C[C@H]2[C@@H]3CC=C4CC(N5CCCC5)CC[C@]4(C)[C@H]3CC[C@]12C (some centres undefined)
3. FC(F)(F)c1[nH]ncc1-c1nc2ccc3[nH]ncc3c2c2c1CCCC2

1. > 100 µM
2. > 100 µM
3. 10.1 µM

The values you see were collected from PubChem BioAssay (NCI).
